# test_target: T1, cyno IL-33 N-His (cynomolgus monkey)
# T1 chain: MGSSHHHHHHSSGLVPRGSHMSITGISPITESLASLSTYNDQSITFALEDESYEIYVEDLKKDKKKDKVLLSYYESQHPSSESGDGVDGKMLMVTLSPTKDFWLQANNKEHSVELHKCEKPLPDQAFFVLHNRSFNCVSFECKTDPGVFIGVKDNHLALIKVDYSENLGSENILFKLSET
# experiment_description: SPR Biacore T200, 37 C
# kon >= 800000 M⁻¹ s⁻¹ gives rule met, anything below gives rule not met

{"columns": ["binder", "assigned_label"],
 "data": [
  ["H4H9665P (antibody, V domains shown) VH: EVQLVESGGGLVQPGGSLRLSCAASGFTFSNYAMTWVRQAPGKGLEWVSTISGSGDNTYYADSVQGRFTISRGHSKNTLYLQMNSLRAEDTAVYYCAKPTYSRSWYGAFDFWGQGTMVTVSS VL: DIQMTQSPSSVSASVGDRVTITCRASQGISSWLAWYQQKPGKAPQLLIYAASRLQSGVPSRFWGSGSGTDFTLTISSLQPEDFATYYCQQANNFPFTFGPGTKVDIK", "rule not met"],
  ["H4H9662P (antibody, V domains shown) VH: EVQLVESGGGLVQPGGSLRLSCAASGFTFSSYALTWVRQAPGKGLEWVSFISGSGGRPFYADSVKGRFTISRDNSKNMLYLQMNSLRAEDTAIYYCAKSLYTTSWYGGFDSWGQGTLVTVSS VL: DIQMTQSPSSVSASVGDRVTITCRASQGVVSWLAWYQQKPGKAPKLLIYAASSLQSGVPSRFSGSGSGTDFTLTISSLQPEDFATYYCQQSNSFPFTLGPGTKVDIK", "rule not met"],
  ["H4H9659P (antibody, IgG4, V domains shown, also called RG7) VH: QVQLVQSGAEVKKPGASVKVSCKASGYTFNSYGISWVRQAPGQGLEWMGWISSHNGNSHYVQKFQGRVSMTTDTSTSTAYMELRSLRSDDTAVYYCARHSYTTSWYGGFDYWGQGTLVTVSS VL: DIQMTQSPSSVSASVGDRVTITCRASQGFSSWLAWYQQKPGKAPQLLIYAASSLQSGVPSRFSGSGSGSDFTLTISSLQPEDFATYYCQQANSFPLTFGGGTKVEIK", "rule not met"],
  ["H4H9640P (antibody, IgG4, V domains shown, also called RG6) VH: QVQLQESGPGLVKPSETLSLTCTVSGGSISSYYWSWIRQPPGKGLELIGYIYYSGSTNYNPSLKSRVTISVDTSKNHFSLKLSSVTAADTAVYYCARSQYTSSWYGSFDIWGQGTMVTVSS VL: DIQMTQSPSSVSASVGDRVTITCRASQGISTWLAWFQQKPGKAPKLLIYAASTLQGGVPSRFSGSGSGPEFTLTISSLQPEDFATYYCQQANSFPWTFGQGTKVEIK", "rule met"]
]}

--- query ---
Data request: For this binder, is measured kon 800000 M⁻¹ s⁻¹ or higher? H4H9675P (antibody, V domains shown) VH: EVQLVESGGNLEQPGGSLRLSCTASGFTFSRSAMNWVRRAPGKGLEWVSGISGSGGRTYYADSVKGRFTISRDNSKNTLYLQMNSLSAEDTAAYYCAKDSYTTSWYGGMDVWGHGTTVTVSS VL: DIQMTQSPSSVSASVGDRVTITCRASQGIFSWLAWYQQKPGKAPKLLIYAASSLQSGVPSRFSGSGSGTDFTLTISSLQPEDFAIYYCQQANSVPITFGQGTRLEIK
Data returned: rule not met
